Experiment: in vivo
Settings: in vivo; route not stated at this place; read-out: acute toxicity LD50

| Given Smiles | LD50 at 1 month |
| --- | --- |
| COc1ccc2cc1Oc1ccc(cc1)C[C@H]1c3cc(c(OC)cc3CCN1C)Oc1c(OC)c(OC)c(Br)c3c1[C@H](C2)N(C)CC3 | > 125 mg/kg |
